Reference source for all entries: ChEMBL document CHEMBL5537208

Assay: Thermodynamic solubility in FaSSIF at pH 6.5
Format: ADME
Details: read-out: Therm_solubility
OBSERVATION TYPE: solubility thermodynamic (µg/mL)
The answer is to be given in µg/mL; state only the numeric part.

The recorded solubility thermodynamic for Cc1ccc(C(=O)N2CCOC[C@H]2Cc2cccc(-n3nccn3)c2)c(-n2nccn2)c1 is 72

* * *

Entries and their solubility
Assay: Solubility of compound in FeSSIF
Assay type: ADME
The answer is to be given in µg/mL; state only the numeric part.

Some compounds with known solubility results, for comparison:
COMPOUND	MEASURE UNIT	solubility
Cc1ccc(-n2nccn2)c(C(=O)N2CCOC[C@H]2Cc2cccc(-n3nccn3)c2)c1	µg/mL	46
Cc1cccc(C(=O)N2CCOC[C@H]2Cc2cccc(-n3nccn3)c2)c1-n1nccn1	µg/mL	337
Cc1ccc(C(=O)N2CCOC[C@H]2Cc2cccc(-n3nccn3)c2)c(-n2nccn2)c1C	µg/mL	293

Next item in the queue.
The recorded solubility for Cc1ccc(C(=O)N2CCOC[C@H]2Cc2cccc(-n3nccn3)c2)c(-n2nccn2)c1 [NIVASOREXANT] is 270

* * *

Assay: Drug concentration in Wistar rat Cerebrospinal fluid at 30 mg/kg, po measured after 1 hr by LC-tandem MS analysis
Type: ADME, organism-based
Conditions: read-out: Ct
Entries and their concentration at 1 h
The answer is to be given in nM; state only the numeric part.

COMPOUND STRING	VALUE REPORTED
Cc1ccc(C(=O)N2CCOC[C@H]2Cc2cccc(-n3nccn3)c2)c(-n2nccn2)c1	240

The recorded concentration at 1 h for Cc1ccc(C(=O)N2CCOC[C@H]2Cc2cc(-n3nccn3)ccc2F)c(-n2nccn2)c1 is 45

* * *

Assay: in vitro
Conditions: rat, liver microsomes
OBSERVATION TYPE: microsomal CLint at 1 µM

COMPOUND STRING	OBSERVATION TYPE	VALUE REPORTED
Cc1cccc(C(=O)N2CCOC[C@H]2Cc2cccc(-n3nccn3)c2)c1-n1nccn1	microsomal CLint at 1 µM	> 1250 µL/min/mg
Cc1ccc(-n2nccn2)c(C(=O)N2CCOC[C@H]2Cc2cccc(-n3nccn3)c2)c1	microsomal CLint at 1 µM	> 1250 µL/min/mg

The recorded microsomal CLint at 1 µM for COc1ccc(-n2nccn2)c(C(=O)N2CCOC[C@H]2Cc2cccc(-n3nccn3)c2)c1 is > 1250 µL/min/mg

* * *

Experiment: Unbound drug concentration in Wistar rat plasma at 1 mg/kg, po measured after 1 hr by LC-tandem MS analysis
Format: ADME, organism-based
Conditions: in vivo
OBSERVATION TYPE: Cp(f) (nM)
The answer is to be given in nM; state only the numeric part.

Some compounds with known Cp(f) results, for comparison:
COMPOUND STRING	OBSERVATION TYPE	VALUE REPORTED
Cc1ccc(C(=O)N2CCOC[C@H]2Cc2cc(-n3nccn3)ccc2F)c(-n2nccn2)c1	Cp(f)	177
Cc1cccc(C(=O)N2CCOC[C@H]2Cc2cccc(-n3nccn3)c2)c1-n1nccn1	Cp(f)	278
Cc1ccc(C(=O)N2CCOC[C@H]2Cc2cccc(-n3nccn3)c2)c(-n2nccn2)c1C	Cp(f)	72
Cc1ccc(C(=O)N2CCOC[C@H]2Cc2cccc(-n3nccn3)c2)c(-n2nccn2)c1	Cp(f)	227

The recorded Cp(f) for Cc1ccc(-n2nccn2)c(C(=O)N2CCOC[C@H]2Cc2cccc(-n3nccn3)c2)c1 is 36
